# measurement.target: 3-hydroxyacyl-CoA dehydrogenase type-2 (Homo sapiens) (UniProt Q99714)
# Sequence (Q99714 whole entry, looked up): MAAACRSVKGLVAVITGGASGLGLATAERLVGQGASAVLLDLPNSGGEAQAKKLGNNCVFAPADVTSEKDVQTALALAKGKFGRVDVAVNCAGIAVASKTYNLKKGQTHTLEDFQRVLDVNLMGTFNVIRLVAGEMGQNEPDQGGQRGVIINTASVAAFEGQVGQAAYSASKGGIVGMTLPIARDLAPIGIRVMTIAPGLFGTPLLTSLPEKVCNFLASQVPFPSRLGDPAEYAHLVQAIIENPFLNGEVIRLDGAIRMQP
# Sequence (Q99714 whole entry, looked up): as above
# assay.procedure: qHTS Assay for Inhibitors of HADH2 (Hydroxyacyl-Coenzyme A Dehydrogenase, Type II); also: nearly all actives have a fitted effect of over 60% in size; also: potency is read from the fitted curve at half-maximal effect
# condition.details: recombinant HADH2, NADH fluorescence, beta-hydroxybutyryl-CoA; series mostly up to 57.1 µM
Screen size: about 73,000 compounds; about 2,500 (3.4%) were called active. About 7% were inconclusive and are not listed. The full list was thinned out, with actives kept by preference.
recorded.endpoint: Potency

COC(=O)[C@H]1C[C@@H]1[C@H](NC(=O)Oc1ccc(F)cc1)c1ccccc1 :: inactive
C1=C(N2CCOCC2)/C(=C/c2nc3ccccc3[nH]2)CC1 :: 3.98 µM (active)
O=C1C(c2[nH]c3ccccc3c2O)=Nc2ccccc21 :: inactive
c1n[nH]c(NCc2ccc3c(c2)OCO3)n1 :: inactive

Now take the following compound into account.
Retrieve Potency measured for COC(=O)C1(C)C=CCN1C(=O)c1ccccc1 (centres undefined) and print it.
inactive

From: PubChem BioAssay AID886
